Tested on: BT-549 breast
Test: NCI tumour cell line growth inhibition, 48 h
PROPERTY_NAME: TGI

Could I get TGI for every one of these entries?
1. C=CC(COC(=O)C(C)(C)OC(C)=O)c1ccc(OC(=O)C(C)C)c(OC)c1 (stereo unspecified)
2. CCOC(=O)Nc1sc2c(c1C#N)CC(C)CC2 (stereo unspecified)

1: 22.5 µM; 2: > 100 µM

Dear reader, for each entry below, please note its TGI.
1. O=C(O)C1OC1C(=O)O (stereo unspecified)
2. C[C@@H]1[C@H](O)CC2=C(CC[C@@H](O)C2(C)C)[C@@]1(CO)CCc1ccoc1
3. O=C(O)C1CC=CCC1C(=O)Nc1cccc(O)c1 (stereo unspecified)
4. CSc1nc(Nc2ccccc2Cl)c2c(N)nn(C)c2n1

1. > 100 µM
2. > 50 µM
3. > 100 µM
4. > 100 µM

Dear colleague, could you please provide TGI for the compounds listed below?
1. C[C@]12CC[C@@H]3c4ccc(O)cc4CC[C@H]3[C@@H]1CC[C@@H]2NS(=O)(=O)c1ccc(Br)cc1
2. O=S(=O)(O)c1cc(S(=O)(=O)O)c2cc(N=Nc3c(O)ccc4ccccc34)ccc2c1
3. CC(=O)N1c2ccccc2C2=NN(C)C(=N)SC21 (stereo unspecified)
4. O=C1CC[C@H](N2Cc3c(OCc4ccc(CN5CCOCC5)cc4)cccc3C2=O)C(=O)N1
5. CCOc1ccccc1NC(=O)C(=O)C(/C(=N/N)C(=O)OC)c1nc2ccc([N+](=O)[O-])cc2[nH]c1=O (stereo unspecified)

["4.72 µM", "> 100 µM", "> 100 µM", "> 100 µM", "> 100 µM"]

---

Would you kindly list TGI for each of these molecules?
System: SW-620 colon
Assay: NCI tumour cell line growth inhibition, 48 h

Here are 2 molecules together with their reported answers.
INSERT INTO measurements (structure_notation, meas_value) VALUES
  ('Cc1cc(C(=O)Nc2n[nH]c3ccccc23)n[nH]1', '> 100 µM'),
  ('N#Cc1cc2c(cc1C#N)/C(=N\c1cccc(N)n1)N=C2Nc1cccc(N)n1', '60.1 µM');

// next entry
Param item = O=C(O)c1cc2ccccc2c2c3c(ccc12)OCO3 ; retrieve measured TGI.
> 1000 µM

---

Give measured TGI for each item. Keep answers brief.
Tested on: NCI/ADR-RES ovarian
Experiment: NCI tumour cell line growth inhibition, 48 h

INSERT INTO results (molecule, meas_value) VALUES
  ('O=C(O)Cc1ccc(Nc2nc3ccccc3nc2C(=O)O)cc1', '> 100 µM');

Look at each molecule and report its TGI.
1. CC1=NN(c2nc(N)nc(CSc3cc(Cl)c(C)cc3S(N)(=O)=O)n2)C(C)(C)C1
2. O=C1C2=Cc3ccccc3OC2(O)Oc2ccccc21 (stereo unspecified)
3. CCOC(=O)c1nc2ccccc2nc1NCc1ccc(OC)c(OC)c1
4. O=C(c1cccc2ccccc12)C1S(=O)(=O)OCCOS1(=O)=O
5. O=C1c2c(Br)sc(Br)c2[C@@H](Cl)[C@H]1Cl

1. > 10 µM
2. > 100 µM
3. > 100 µM
4. > 100 µM
5. > 100 µM

---

Tested on: HT29 colon
Assay: NCI tumour cell line growth inhibition, 48 h; in the data active = GI50 below about 0.43 µM; inactive = the rest
Write down one outcome, taken from 1 = active, 0 = inactive

Illustrative cases are given below, each with its answer.
INSERT INTO measurements (structure_notation, cat) VALUES
  ('N#Cc1ccc(-c2c(-c3ncn[nH]3)sc(N3CCOCC3)c2C#N)c(F)c1', 1),
  ('COc1ccc(/C(C)=N/NC(=O)CSc2nc3ccccc3c(=O)n2CCc2ccc(S(N)(=O)=O)cc2)cc1', 0),
  ('O=C1CC[C@H](N2Cc3c(OCc4ccc(CN5CCOCC5)cc4)cccc3C2=O)C(=O)N1', 0);

Now for a further molecule.
Hi, do you know how NCCCCCNc1noc(Cc2c[nH]c3cc(Br)ccc23)n1 came out in this test?
0
